Origin of values: the supplement of paper PMC10126150

Tested on: ATP;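 note: ATP exposure 15 min at 22 °C before imaging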
Experiment: switch fluorescence ratio, 500 uM ATP over buffer (Cy3 cluster intensity, sum of 5 cycles each) (fold (ratio)); higher = stronger signal-on switching upon ATP binding; sequences stand for … in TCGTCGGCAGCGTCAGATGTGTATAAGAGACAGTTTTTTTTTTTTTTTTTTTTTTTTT…TC
Settings: aptamer strand: ATP DNA aptamer (quencher-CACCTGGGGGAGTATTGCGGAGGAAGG + anchor), 100 nM annealed; ATP concentration: 500 uM
readout.kind: switch fluorescence ratio
I only need the number, thanks.

INPUT: Need switch fluorescence ratio, item GGTGTTGGTT
OUTPUT: 1.01

INPUT: Need switch fluorescence ratio, item ATAGGTATTC
OUTPUT: 0.976

INPUT: Need switch fluorescence ratio, item AGTGCACGTG
OUTPUT: 1

INPUT: Need switch fluorescence ratio, item CGGAGGTGTA
OUTPUT: 1.4

INPUT: Need switch fluorescence ratio, item TGGGATGAGT
OUTPUT: 1.01

INPUT: Need switch fluorescence ratio, item ATACGGGTGC
OUTPUT: 1.26

INPUT: Need switch fluorescence ratio, item CGATTTGCTT
OUTPUT: 0.969

INPUT: Need switch fluorescence ratio, item TACGTATACT
OUTPUT: 1.39

INPUT: Need switch fluorescence ratio, item TGCGCTTTTT
OUTPUT: 1.03

INPUT: Need switch fluorescence ratio, item TGGTCGTATT
OUTPUT: 0.958

INPUT: Need switch fluorescence ratio, item ATAGGGGGAT
OUTPUT: 0.993

----------
System: ATP;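 note: ATP exposure 15 min at 22 °C before imaging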
Assay: switch fluorescence ratio, 500 uM ATP over buffer (Cy3 cluster intensity, sum of 5 cycles each) (fold (ratio)); higher = stronger signal-on switching upon ATP binding; sequences stand for … in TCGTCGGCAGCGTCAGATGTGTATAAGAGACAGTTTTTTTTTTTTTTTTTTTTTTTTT…TC
Details: aptamer strand: ATP DNA aptamer (quencher-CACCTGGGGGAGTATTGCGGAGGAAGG + anchor), 100 nM annealed; ATP concentration: 500 uM
readout.kind: switch fluorescence ratio
I only need the number, thanks.

INPUT: Need switch fluorescence ratio, item TAATTGGGTC
OUTPUT: 1.02

INPUT: Need switch fluorescence ratio, item TTTGATGCAG
OUTPUT: 0.993

INPUT: Need switch fluorescence ratio, item GTGTTTTTGT
OUTPUT: 0.972

INPUT: Need switch fluorescence ratio, item AAGGTGTAGC
OUTPUT: 0.984

INPUT: Need switch fluorescence ratio, item CCTAAATTAT
OUTPUT: 1.02

INPUT: Need switch fluorescence ratio, item CACGGGGAAG
OUTPUT: 1.02

INPUT: Need switch fluorescence ratio, item AAGCGGAGAT
OUTPUT: 1.02

INPUT: Need switch fluorescence ratio, item TAGGGCCAAC
OUTPUT: 1.02

INPUT: Need switch fluorescence ratio, item TGTCTAGTTA
OUTPUT: 0.972

INPUT: Need switch fluorescence ratio, item AGAAAAGGGC
OUTPUT: 1.03

INPUT: Need switch fluorescence ratio, item GTTGAAGTTT
OUTPUT: 0.985

INPUT: Need switch fluorescence ratio, item ATCGTAGGTT
OUTPUT: 0.972

INPUT: Need switch fluorescence ratio, item TTGATTTTTG
OUTPUT: 1.01

INPUT: Need switch fluorescence ratio, item GTGGGTTGTG
OUTPUT: 0.978

INPUT: Need switch fluorescence ratio, item GGACTGGTCG
OUTPUT: 1

INPUT: Need switch fluorescence ratio, item GAGGCAGAAA
OUTPUT: 1.09

INPUT: Need switch fluorescence ratio, item CCAGTTGATG
OUTPUT: 0.991

INPUT: Need switch fluorescence ratio, item AGTAAAAAAG
OUTPUT: 1.04

INPUT: Need switch fluorescence ratio, item CTTAGCATTG
OUTPUT: 1.03

INPUT: Need switch fluorescence ratio, item GAAAGGGGTT
OUTPUT: 1.02

INPUT: Need switch fluorescence ratio, item CTCGGAGATT
OUTPUT: 1.01

INPUT: Need switch fluorescence ratio, item TCCGGGGTTG
OUTPUT: 0.988

INPUT: Need switch fluorescence ratio, item TGAGGACCCT
OUTPUT: 1.02

INPUT: Need switch fluorescence ratio, item TTGCTGAGCT
OUTPUT: 0.998

INPUT: Need switch fluorescence ratio, item ATTTGAGCTA
OUTPUT: 1.04

INPUT: Need switch fluorescence ratio, item ACAGGGAGGG
OUTPUT: 1.02

INPUT: Need switch fluorescence ratio, item GGGTGACGCG
OUTPUT: 1.01

INPUT: Need switch fluorescence ratio, item GGGTATGGGA
OUTPUT: 0.99

INPUT: Need switch fluorescence ratio, item GAACAGGGGA
OUTPUT: 1.53

INPUT: Need switch fluorescence ratio, item AAATCTCTGA
OUTPUT: 1.01

INPUT: Need switch fluorescence ratio, item AACCTTTTTT
OUTPUT: 1.03

INPUT: Need switch fluorescence ratio, item GGGGAGAGGC
OUTPUT: 1.08

INPUT: Need switch fluorescence ratio, item TGTGTTAGTA
OUTPUT: 0.96

INPUT: Need switch fluorescence ratio, item ATACCTTATG
OUTPUT: 1

INPUT: Need switch fluorescence ratio, item CCTAGCATGG
OUTPUT: 2.05

INPUT: Need switch fluorescence ratio, item GATGCGGGAG
OUTPUT: 1.02

INPUT: Need switch fluorescence ratio, item ACATGAGAAA
OUTPUT: 0.988

INPUT: Need switch fluorescence ratio, item GCGTAGGGCC
OUTPUT: 1.03

INPUT: Need switch fluorescence ratio, item CTGTTACGCA
OUTPUT: 1.2

INPUT: Need switch fluorescence ratio, item TTGAGTTTTG
OUTPUT: 0.985

INPUT: Need switch fluorescence ratio, item AGTTACAGGG
OUTPUT: 1.05

INPUT: Need switch fluorescence ratio, item GTGGTTGGAG
OUTPUT: 0.987

INPUT: Need switch fluorescence ratio, item GGCCGCGCTG
OUTPUT: 1.04

INPUT: Need switch fluorescence ratio, item TAAGACGTTT
OUTPUT: 1.01

INPUT: Need switch fluorescence ratio, item GAGTCTGGT
OUTPUT: 0.981

INPUT: Need switch fluorescence ratio, item ATAGGTTCGT
OUTPUT: 0.99

INPUT: Need switch fluorescence ratio, item CTTTTTATGA
OUTPUT: 1.01

INPUT: Need switch fluorescence ratio, item ATAGGGTGGG
OUTPUT: 1

INPUT: Need switch fluorescence ratio, item GTTAACTTGA
OUTPUT: 1.01

INPUT: Need switch fluorescence ratio, item CTCCGAGATG
OUTPUT: 5.85

INPUT: Need switch fluorescence ratio, item TAAGCTTCAT
OUTPUT: 1.04

INPUT: Need switch fluorescence ratio, item TGTGAGACTT
OUTPUT: 1.01

INPUT: Need switch fluorescence ratio, item AAAAGTTTTG
OUTPUT: 1.01

INPUT: Need switch fluorescence ratio, item TGAGAGAAGT
OUTPUT: 0.968

INPUT: Need switch fluorescence ratio, item CTAAATGTTT
OUTPUT: 1

INPUT: Need switch fluorescence ratio, item TGGGCTTTTT
OUTPUT: 0.982

INPUT: Need switch fluorescence ratio, item TTTCGCGACA
OUTPUT: 1.34

INPUT: Need switch fluorescence ratio, item AATTTGATTC
OUTPUT: 1.02

INPUT: Need switch fluorescence ratio, item GCTGGGATAG
OUTPUT: 1.01

INPUT: Need switch fluorescence ratio, item TGCATGATTG
OUTPUT: 0.967

INPUT: Need switch fluorescence ratio, item ATAATAATGT
OUTPUT: 1

INPUT: Need switch fluorescence ratio, item AAGGATGCGA
OUTPUT: 1.04

INPUT: Need switch fluorescence ratio, item GTGTCCTTAT
OUTPUT: 0.998

INPUT: Need switch fluorescence ratio, item GTCAGAATGT
OUTPUT: 1.02

INPUT: Need switch fluorescence ratio, item ACGGTTTTAC
OUTPUT: 1.12

INPUT: Need switch fluorescence ratio, item CAGTTTGTGG
OUTPUT: 0.992

INPUT: Need switch fluorescence ratio, item AAGTTGGGTT
OUTPUT: 0.963

INPUT: Need switch fluorescence ratio, item CTAAAAGGCG
OUTPUT: 1.06

INPUT: Need switch fluorescence ratio, item TGCTCTTTTT
OUTPUT: 1

INPUT: Need switch fluorescence ratio, item GGTATAATTG
OUTPUT: 1.02

INPUT: Need switch fluorescence ratio, item TTTTCATACT
OUTPUT: 1.07

INPUT: Need switch fluorescence ratio, item TCGCGCGGTG
OUTPUT: 0.978

INPUT: Need switch fluorescence ratio, item TCACGGTTGC
OUTPUT: 1.04

INPUT: Need switch fluorescence ratio, item CATGGTGGCG
OUTPUT: 1.01

INPUT: Need switch fluorescence ratio, item GACTGGGGTA
OUTPUT: 0.988
